Biological target: Monoamine oxidase A (MAOA) (Homo sapiens)
Sequence (P21397 whole entry): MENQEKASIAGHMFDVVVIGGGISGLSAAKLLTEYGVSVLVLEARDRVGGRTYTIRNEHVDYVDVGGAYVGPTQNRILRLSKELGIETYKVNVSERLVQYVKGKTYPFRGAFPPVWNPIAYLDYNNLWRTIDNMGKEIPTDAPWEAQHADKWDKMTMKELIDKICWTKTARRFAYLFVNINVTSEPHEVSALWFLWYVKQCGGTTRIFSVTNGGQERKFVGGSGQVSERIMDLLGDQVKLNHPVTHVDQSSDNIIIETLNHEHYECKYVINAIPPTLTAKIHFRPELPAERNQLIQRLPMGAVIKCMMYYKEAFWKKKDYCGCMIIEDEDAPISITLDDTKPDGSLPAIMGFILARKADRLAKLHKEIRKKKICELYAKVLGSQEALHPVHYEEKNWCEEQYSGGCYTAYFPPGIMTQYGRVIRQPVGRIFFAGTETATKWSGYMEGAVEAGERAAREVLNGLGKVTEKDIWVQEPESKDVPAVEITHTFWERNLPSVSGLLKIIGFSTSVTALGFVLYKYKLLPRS
Measurement Type: IC50 (nM)
Answers are plain numbers, in nM.

Param readout= IC50; system= Monoamine oxidase A (MAOA) (Homo sapiens); entry= "O=c1cc(-c2ccc(O)c(O)c2)oc2cc(O)cc(O)c12" ; returns value. 10

###

Target: Prostaglandin G/H synthase 2 (PTGS2/COX2) (Ovis aries, UniProt P79208)
Sequence (P79208 17-603): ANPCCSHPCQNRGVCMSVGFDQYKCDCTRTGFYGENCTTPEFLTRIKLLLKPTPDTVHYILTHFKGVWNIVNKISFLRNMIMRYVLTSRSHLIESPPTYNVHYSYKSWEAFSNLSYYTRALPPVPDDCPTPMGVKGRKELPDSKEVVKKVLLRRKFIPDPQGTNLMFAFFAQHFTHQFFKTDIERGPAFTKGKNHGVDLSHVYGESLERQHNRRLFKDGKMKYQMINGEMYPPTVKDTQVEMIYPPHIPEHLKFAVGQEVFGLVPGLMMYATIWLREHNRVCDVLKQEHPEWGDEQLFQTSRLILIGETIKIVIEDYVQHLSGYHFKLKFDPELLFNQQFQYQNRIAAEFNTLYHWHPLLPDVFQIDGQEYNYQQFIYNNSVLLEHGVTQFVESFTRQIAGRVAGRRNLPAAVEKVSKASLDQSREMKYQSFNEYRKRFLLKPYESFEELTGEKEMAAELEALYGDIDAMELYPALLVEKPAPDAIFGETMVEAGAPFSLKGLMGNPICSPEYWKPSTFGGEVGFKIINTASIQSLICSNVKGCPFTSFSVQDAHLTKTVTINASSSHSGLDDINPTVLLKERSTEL
Test: Colorimetric COX (ovine) inhibitor screening assay kit (Cayman)
Measurement Type: pIC50
Give bare numbers, as −log10 of the molar value.

Look up pIC50: O=c1c(O)c(-c2ccc(O)cc2)oc2cc(O)cc(O)c12 [kaempferol] 4.43

###

Target: Factor Xa (F10) (Homo sapiens)
Sequence (P00742 41-179): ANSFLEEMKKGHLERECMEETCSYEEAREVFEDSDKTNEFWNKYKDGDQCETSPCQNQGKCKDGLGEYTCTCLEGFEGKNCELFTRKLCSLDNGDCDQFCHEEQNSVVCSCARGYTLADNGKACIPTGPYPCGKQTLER
Sequence (P00742 235-488): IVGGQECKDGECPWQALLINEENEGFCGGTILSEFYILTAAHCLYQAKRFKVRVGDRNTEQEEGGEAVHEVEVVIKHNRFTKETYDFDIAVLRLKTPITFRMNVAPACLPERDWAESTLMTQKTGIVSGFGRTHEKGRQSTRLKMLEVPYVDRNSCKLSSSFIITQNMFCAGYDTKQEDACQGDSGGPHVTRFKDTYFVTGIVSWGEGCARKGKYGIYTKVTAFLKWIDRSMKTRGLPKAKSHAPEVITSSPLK
Measurement Type: IC50 (µM)
Answers are plain numbers, in µM.

Look up IC50: "O=C(/C=C/c1ccc(O)c(O)c1/C=C/c1ccc(O)c(O)c1)O[C@H](Cc1ccc(O)c(O)c1)C(=O)O" 0.09
